Hello, the source for this data is ChEMBL document CHEMBL4665666, in case you need it.

molecular target: Rhodesain (Trypanosoma brucei rhodesiense) (UniProt Q95PM0); assay: Inhibition of recombinant Trypanosoma brucei rhodesain expressed in Pichia pastoris at 5 uM using Z-FR-AMC as substrate and measured at 12 sec interval for 5 mins without preincubation by fluorimetric analysis relative to control
Sequence (Q95PM0 1-450): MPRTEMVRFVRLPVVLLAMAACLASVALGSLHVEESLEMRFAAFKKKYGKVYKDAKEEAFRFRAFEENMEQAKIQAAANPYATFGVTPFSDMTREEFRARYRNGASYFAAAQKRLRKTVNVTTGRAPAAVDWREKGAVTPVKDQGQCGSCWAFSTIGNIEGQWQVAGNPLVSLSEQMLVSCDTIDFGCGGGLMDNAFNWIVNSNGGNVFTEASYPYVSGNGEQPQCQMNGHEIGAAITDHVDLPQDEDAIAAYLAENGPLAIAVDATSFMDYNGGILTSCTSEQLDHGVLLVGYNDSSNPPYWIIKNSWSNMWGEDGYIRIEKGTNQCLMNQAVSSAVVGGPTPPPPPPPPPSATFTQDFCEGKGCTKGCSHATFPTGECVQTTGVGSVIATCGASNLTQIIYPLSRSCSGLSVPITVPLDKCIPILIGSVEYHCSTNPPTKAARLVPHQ
Please mark T if the recorded inhibition is equal to or greater than 30%, and F if it falls below.

{"COMPOUND": "Cc1cc(NC(=O)c2cccc(C(F)(F)F)c2)n(-c2nc(-c3ccc4c(c3)OCO4)cs2)n1", "CATEGORY LABEL": "T"}
{"COMPOUND": "CCCCCn1c(=N)n(CC(O)COc2cccc(C)c2)c2ccccc21 (stereo unspecified)", "CATEGORY LABEL": "T"}
{"COMPOUND": "O=C(Nc1cccc(-c2nc3ccccc3[nH]2)c1)c1cccc(NC(=O)c2ccco2)c1", "CATEGORY LABEL": "T"}
{"COMPOUND": "COc1ccc(-c2nc3cc(Cc4ccc5[nH]c(-c6ccc(OC)cc6)nc5c4)ccc3[nH]2)cc1", "CATEGORY LABEL": "T"}
{"COMPOUND": "COc1ccc(NC(=O)C2c3ccccc3C(=O)N(CC(C)C)C2c2cccs2)cc1 (stereo unspecified)", "CATEGORY LABEL": "F"}
{"COMPOUND": "Cc1ccccc1OCCSc1nc2ccc(NC(=O)c3ccccc3)cc2s1", "CATEGORY LABEL": "T"}
{"COMPOUND": "O=C(Nc1ccc(-c2nc3ccccc3[nH]2)cc1)c1ccc(Cl)c(Cl)c1", "CATEGORY LABEL": "T"}
{"COMPOUND": "CCCOCc1cc(CN2CCN(c3cccc(Cl)c3)CC2)c(O)c2ncccc12", "CATEGORY LABEL": "T"}
{"COMPOUND": "CCc1ccc(Nc2cc(C)c3ccc(O)cc3n2)cc1", "CATEGORY LABEL": "T"}
{"COMPOUND": "CC(=O)c1ccc(NC(=O)CSc2nc(-c3ccccc3Cl)ns2)cc1", "CATEGORY LABEL": "T"}
{"COMPOUND": "COc1ccc(C2c3ccc4ccccc4c3Oc3ncn(CCCN(C)C)c(=N)c32)cc1 (stereo unspecified)", "CATEGORY LABEL": "T"}
{"COMPOUND": "O=C(c1ccccc1F)N(Cc1ccc(Cl)cc1)c1ccccn1", "CATEGORY LABEL": "T"}
{"COMPOUND": "CCOc1cc(CNC(C)C(O)c2ccccc2)cc(Cl)c1OCC (stereo unspecified)", "CATEGORY LABEL": "T"}
{"COMPOUND": "COc1cc(OC)c(N(C)C(=O)c2cc3c(s2)-c2ccccc2S(=O)(=O)C3)cc1Cl", "CATEGORY LABEL": "F"}
{"COMPOUND": "CCCCCCc1cc2cc(-c3csc(/C=C/c4ccccc4)n3)c(=O)oc2cc1O", "CATEGORY LABEL": "F"}
{"COMPOUND": "O=C(NC1CCN(Cc2ccccc2)CC1)c1cc(-c2ccncc2)nc2ccc(Cl)cc12", "CATEGORY LABEL": "F"}
{"COMPOUND": "CCCCCC(=O)N1c2ccccc2N=C2CC(c3ccc(OC)c(OC)c3)CC(O)=C2C1c1ccc(C(F)(F)F)cc1 (stereo unspecified)", "CATEGORY LABEL": "F"}
{"COMPOUND": "COc1ccccc1C(=O)ON=C(N)Cc1cccc2ccccc12", "CATEGORY LABEL": "F"}
{"COMPOUND": "Clc1ccc2[nH]c3c(NCCCN4CCOCC4)ncnc3c2c1", "CATEGORY LABEL": "T"}
{"COMPOUND": "CN(N=O)C1=C(NC2CCCCC2)C(=O)c2ccccc2C1=O", "CATEGORY LABEL": "T"}
